Origin of values: paper PMC3192115

Biological target: NS5 N-terminal capping enzyme WT (dengue 2) (Dengue virus type 2, UniProt P29990 2492-2758)
Sequence (P29990 2492-2758): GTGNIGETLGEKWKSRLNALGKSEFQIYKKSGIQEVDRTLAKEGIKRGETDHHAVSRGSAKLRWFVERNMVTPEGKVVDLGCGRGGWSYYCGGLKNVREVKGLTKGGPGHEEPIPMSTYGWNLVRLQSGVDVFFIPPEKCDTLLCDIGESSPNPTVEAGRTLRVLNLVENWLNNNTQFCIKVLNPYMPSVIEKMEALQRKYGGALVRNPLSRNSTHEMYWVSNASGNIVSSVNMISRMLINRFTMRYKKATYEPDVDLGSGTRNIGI
Test: fluorescence polarization
Details: protein: recombinant; tags: His; label: 3' FAM
Property measured: Kd (nM)
Give bare numbers, in nM.

Request: Please report the measured Kd for AGUAA (ssRNA, 5' monophosphate) [pAGUAA-FAM]
Response: 967
